Let's look at some compounds and their measured IC50.
Biological target: Human TRPC6 (Homo sapiens)
Construct: expressed in transfected cells
Sequence (Q9Y210 1-931): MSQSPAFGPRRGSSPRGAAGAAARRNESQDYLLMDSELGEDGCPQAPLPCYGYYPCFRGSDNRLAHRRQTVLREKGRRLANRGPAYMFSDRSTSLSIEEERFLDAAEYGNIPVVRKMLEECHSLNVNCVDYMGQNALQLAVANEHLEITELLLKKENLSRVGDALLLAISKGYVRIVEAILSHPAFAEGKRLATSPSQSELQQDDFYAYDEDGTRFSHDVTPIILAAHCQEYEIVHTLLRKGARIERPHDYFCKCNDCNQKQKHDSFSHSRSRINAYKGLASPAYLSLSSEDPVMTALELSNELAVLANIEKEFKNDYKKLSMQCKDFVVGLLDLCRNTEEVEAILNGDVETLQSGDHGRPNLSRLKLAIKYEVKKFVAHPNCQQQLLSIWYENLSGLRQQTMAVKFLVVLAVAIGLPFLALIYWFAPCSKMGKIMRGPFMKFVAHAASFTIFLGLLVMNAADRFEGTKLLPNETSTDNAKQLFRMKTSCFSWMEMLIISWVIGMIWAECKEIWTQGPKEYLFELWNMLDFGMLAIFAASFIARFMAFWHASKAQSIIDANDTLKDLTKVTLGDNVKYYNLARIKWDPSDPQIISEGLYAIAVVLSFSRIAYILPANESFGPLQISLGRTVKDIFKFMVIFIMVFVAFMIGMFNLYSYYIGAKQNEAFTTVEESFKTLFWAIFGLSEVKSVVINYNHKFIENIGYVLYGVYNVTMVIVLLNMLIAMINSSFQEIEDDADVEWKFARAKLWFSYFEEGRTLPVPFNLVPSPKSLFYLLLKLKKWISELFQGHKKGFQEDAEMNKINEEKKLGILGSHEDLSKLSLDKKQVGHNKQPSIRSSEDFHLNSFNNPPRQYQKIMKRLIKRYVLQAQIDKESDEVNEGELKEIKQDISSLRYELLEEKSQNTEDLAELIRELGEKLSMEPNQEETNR
Test: Evaluation of TRPC6 channel inhibitory activity (1), FLIPR Calcium 5 Assay Kit, OAG stimulation (Compound Nos. 1-1293)
Assay type: cell-based
Conditions: Human TRPC6 stably-expressing cells, OAG 30 μM, FLIPR Calcium 5 Assay Kit; read-out: Inhibitory activity (pIC50 class) (converted)
Procedure: Evaluation of TRPC6 Channel Inhibitory Activity (1) (Compound Nos. 1-1293) In order to investigate TRPC6 channel inhibitory activity of the compounds, evaluation was conducted using FLIPR® Calcium 5 Assay Kit (Molecular Devices) in accordance with the following procedure. […] A volume of 12.5 μL of a compound solution was added into each well while the fluorescence was measured with FLIPR tetra. […]

Cn1nc(C2CCCC2)cc1Oc1cc(C#N)ccc1-c1ccc([C@H](O)CN)cn1 [compound 392]; < 10 nM
COC(c1cc(-c2nccs2)no1)c1cc(C#N)ccc1-c1ccc(CCN)cc1 (stereo not drawn) [Compound No. 1232]; > 1000 nM
Cc1cc(Oc2cc(C#N)ccc2-c2ccc(C(C)N)cn2)cc(N2CCOCC2)n1 (stereo not drawn) [compound 398]; < 10 nM

[Q] Can you look up the measured IC50 of N#Cc1ccc(-c2ccc(CCN)cc2)c(C(=O)c2nnc(N3CCOCC3)s2)c1 [compound 1088] for me?
[A] 10 to 1000 nM

[Q] // returns reported IC50 for input Cn1nc(C2CC2)cc1Oc1cc(C#N)ccc1-c1ccc(C(=O)CN)cc1 [Compound 214]
[A] 10 to 1000 nM

[Q] // IC50 lookup, key: Cn1nc(C2CC2)cc1Oc1cc(C#N)ccc1-c1ccc(CC(=O)N2CCNCC2)cn1 [compound 783]
[A] > 1000 nM

[Q] Any idea what its IC50 is? The compound is Cc1cc(Oc2cc(C#N)ccc2-c2ccc([C@H](O)CN)cn2)cc(N2C[C@@H](C)O[C@@H](C)C2)n1 [compound 505]
[A] < 10 nM

[Q] I have this compound here, CC(C)Nc1cc(Oc2cc(C#N)ccc2-c2ccc([C@H](O)CN)cn2)n(C)n1 [compound 549] , and I need its recorded IC50.
[A] 10 to 1000 nM

[Q] Reported IC50, compound Cn1nc(N2CCCCC2)cc1Oc1cc(C#N)ccc1-c1ccc(CN)cn1 [compound 621] : ____
[A] < 10 nM

[Q] Requested field: IC50. Item: Cn1nc(C2CC2)cc1Oc1cc(C#N)ccc1-c1cc(C(=O)N2CCNCC2)ccn1 [compound 552]
[A] > 1000 nM

[Q] Reported IC50 for Cc1nc(Oc2cc(C#N)ccc2-c2ccc(C(CN)Oc3ccccc3)cc2)cc(N2CCOCC2)n1 (stereo not drawn) [Compound 13] : what is it?
[A] 10 to 1000 nM

[Q] Any idea what IC50 was measured for Cc1cc(Oc2cc(C#N)ccc2-c2ccc(CCN)cn2)n(C)n1 [compound 299] ?
[A] < 10 nM

[Q] // IC50 lookup, key: Cc1nc(Oc2cc(C#N)ccc2-c2ncc(CN)cn2)cc(N2CCCC2)n1 [compound 658]
[A] 10 to 1000 nM

[Q] Requested read-out: IC50. Entry: Cn1nc(-c2ccccc2)cc1Oc1cc(C#N)ccc1-c1ccc([C@H](O)CN)cn1 [compound 366]
[A] < 10 nM

[Q] I have this compound here, N#Cc1ccc(-c2ncc(CN)cn2)c(C(=O)c2cnc(N3CCOCC3)o2)c1 [compound 1082] , and I need its recorded IC50.
[A] > 1000 nM

[Q] Sample CC(C)CNc1cc(Sc2cc(C#N)ccc2-c2ncc(CN)cn2)cnn1 [compound 1273] — what was its IC50?
[A] 10 to 1000 nM

[Q] State the recorded IC50 for this entry: Cc1nc(Sc2cc(C#N)ccc2-n2cc(CCN)cn2)cc(N2CCCCC2)n1 [compound 1252]
[A] 10 to 1000 nM

[Q] // query IC50 value for entry Cc1cc(Oc2cc(C#N)ccc2-n2ccc(C(O)CN)n2)cc(-c2ccccc2)n1 (stereo not drawn) [Compound 203]
[A] 10 to 1000 nM

[Q] Which IC50 value is on record for Cn1nc(C2CCC2)cc1Oc1cc(C#N)ccc1-c1ncc(CCN)cn1 [Compound 272] ?
[A] < 10 nM

[Q] Look at this compound and give its reported IC50. Cn1nc(-c2cnccn2)cc1Oc1cc(C#N)ccc1-c1ncc(CN)cn1 [Compound No. 931]
[A] 10 to 1000 nM
